Values were extracted from patent US6828317B2.

For reference, MIC measured on S. pneumoniae UC9912:
observation.type: MIC (µg/mL)

Reading of MIC for O=C(CO)NC[C@H]1CN(c2ccc(C3=NNC(=O)CS3)c(F)c2)C(=O)O1 with S. pneumoniae UC9912: 0.125

Reading of MIC for CCC1SC(c2ccc(N3C[C@H](CNC(C)=O)OC3=O)cc2F)=NNC1=O (some centres unmarked) with S. pneumoniae UC9912: 2

Reading of MIC for CC(=O)NC[C@H]1CN(c2ccc(C3=NNC(=O)C(c4ccccc4)S3)c(F)c2)C(=O)O1 (some centres unmarked) with S. pneumoniae UC9912: 0.5

I: CC(=O)CC(=O)NC[C@H]1CN(c2ccc(C3=NNC(=O)CS3)c(F)c2)C(=O)O1
II: CO/N=C/c1ccc(/C=C/C(=O)NC[C@H]2CN(c3ccc(C4=NNC(=O)CS4)c(F)c3)C(=O)O2)cc1
Two entries are listed, I and II . Which one carries the higher MIC? # answer = label of selected item
I
(I: 0.5 µg/mL, II: 0.06 µg/mL)

###

# Lookup of reported melting point keyed by entry

Below are worked cases with known answers.
The compound listed as NC(=O)NC[C@H]1CN(c2ccc(C3=NNC(=O)CS3)c(F)c2)C(=O)O1 [Example 18] has a reported melting point of 235 to 236 °C

The compound listed as O=C1CSC(c2ccc(N3C[C@H](CNC(=O)C4CC4)OC3=O)cc2F)=NN1 [Example 16] has a reported melting point of 239 to 240 °C

The compound listed as CCC(=O)NC[C@H]1CN(c2ccc(C3=NNC(=O)CS3)c(F)c2)C(=O)O1 [Example 15] has a reported melting point of 192 to 193 °C

The compound listed as O=C(CO)NC[C@H]1CN(c2ccc(C3=NNC(=O)CS3)c(F)c2)C(=O)O1 [Example 17] has a reported melting point of 157 to 158 °C

The compound listed as O=C(CC(=O)c1ccc(F)cc1)NC[C@H]1CN(c2ccc(C3=NNC(=O)CS3)c(F)c2)C(=O)O1 [Example 22] has a reported melting point of 184 to 187 °C

The compound listed as CC(=O)NC[C@H]1CN(c2ccc(C3=NNC(=O)C(c4ccccc4)S3)c(F)c2)C(=O)O1 (stereo partly shown) [Example 9] has a reported melting point of 122 to 123 °C

The compound listed as CC(=O)NC[C@H]1CN(c2ccc(C3=NNC(=O)CS3)c(F)c2)C(=O)O1 [Example 1] has a reported melting point of 206 to 209 °C

The compound listed as CC(=S)NC[C@H]1CN(c2ccc(C3=NNC(=O)CS3)c(F)c2)C(=O)O1 [Example 25] has a reported melting point of 182 to 183 °C

New cases:
The compound listed as CC(=O)NC[C@H]1CN(c2ccc(C3=NN(C)C(=O)CS3)c(F)c2)C(=O)O1 [Example 32] has a reported melting point of 179 to 180 °C

The compound listed as O=C(/C=C/c1ccc(/C=N/O)cc1)NC[C@H]1CN(c2ccc(C3=NNC(=O)CS3)c(F)c2)C(=O)O1 [Example 23] has a reported melting point of 144 to 145 °C

The compound listed as CC(=O)NC[C@H]1CN(c2ccc(C3=NNC(=O)[C@@H](C)S3)c(F)c2)C(=O)O1 [Example 3] has a reported melting point of 205 to 206 °C
